Target: ATM (Homo sapiens)
Construct: detecting phosphorylation of Chk2 in a human non-small cell lung cancer cell line NCI-H460 (ATCC company); host or cells: NCI-H460 human non-small cell lung cancer cells
Experiment: ATM inhibition test (phosphorylation of Chk2 generated by ionizing radiation, AlphaScreen SureFire)
Format: cell-based
Settings: phosphorylated Chk2 in NCI-H460 cells, ionizing radiation 8Gy, 1 hour after test compound treatment; read-out: ATM inhibitory activity
Here, each record is paired with measured IC50 data.

The following molecules have reported results that may help.
CC1CC(Nc2ccc3c(c2)Cc2cccc(-c4cc(N5CCOCC5)cc(=O)[nH]4)c2O3)CCN1C(=O)OC(C)(C)C (centres unmarked); 500 to 2000 nM
O=C1CCN1c1cncc(CNc2ccc3c(c2)Cc2cccc(-c4cc(N5CCOCC5)cc(=O)[nH]4)c2O3)c1; 100 to 500 nM
CN1CCC(Nc2ccc3c(c2)Sc2cccc(-c4cc(N5CCOCC5)cc(=O)[nH]4)c2S3)C1 (centres unmarked); 100 to 500 nM
COc1ccc(CN2CCC(Nc3ccc4c(c3)Cc3cccc(-c5cc(N6CCOCC6)cc(=O)[nH]5)c3O4)CC2)cn1; 100 to 500 nM
CC1COCCN1CCNc1ccc2c(c1)Sc1cccc(-c3cc(N4CCOCC4)cc(=O)[nH]3)c1S2 (centres unmarked); < 100 nM

Incoming: For the molecule O=c1cc(N2CCOCC2)cc(-c2cccc3c2Oc2ccc(NC4CCCN(CCc5ccccc5)C4)cc2C3)[nH]1 (centres unmarked) , give its measured IC50 value.
Outgoing: 500 to 2000 nM

Incoming: For the molecule CC(CCNc1ccc2c(c1)Sc1cccc(-c3cc(N4CCOCC4)cc(=O)[nH]3)c1S2)N1CCOCC1 (centres unmarked) , give its measured IC50 value.
Outgoing: 100 to 500 nM

Incoming: For the molecule O=c1cc(N2CCOCC2)cc(-c2cccc3c2Sc2ccc(NC4CCN(C5CCOC5)C4)cc2S3)[nH]1 (centres unmarked) , give its measured IC50 value.
Outgoing: 100 to 500 nM

Incoming: For the molecule CC(CN1CCN(C)CC1)Nc1ccc2c(c1)Sc1cccc(-c3cc(N4CCOCC4)cc(=O)[nH]3)c1S2 (racemic) [Example 1-13-3-1] , give its measured IC50 value.
Outgoing: < 100 nM

Incoming: For the molecule Cc1cncc(C(C)Nc2ccc3c(c2)Cc2cccc(-c4cc(N5CCOCC5)cc(=O)[nH]4)c2O3)c1 (single isomer, unassigned) [Example 2-14-88-2] , give its measured IC50 value.
Outgoing: 100 to 500 nM

Incoming: For the molecule COc1cccc(CNc2ccc3c(c2)Sc2cccc(-c4cc(N5CCOCC5)cc(=O)[nH]4)c2O3)n1 , give its measured IC50 value.
Outgoing: < 100 nM

Incoming: For the molecule CN1CCC(Nc2ccc3c(c2)Cc2cccc(-c4cc(N5CCOCC5)cc(=O)[nH]4)c2O3)CC1 , give its measured IC50 value.
Outgoing: 500 to 2000 nM

Incoming: For the molecule CC(=O)Nc1cccc(CNc2ccc3c(c2)Cc2cccc(-c4cc(N5CCOCC5)cc(=O)[nH]4)c2O3)n1 , give its measured IC50 value.
Outgoing: 500 to 2000 nM

Incoming: For the molecule Cc1cncc(C(C)Nc2ccc3c(c2)Sc2cccc(-c4cc(N5CCOCC5)cc(=O)[nH]4)c2S3)n1 (centres unmarked) , give its measured IC50 value.
Outgoing: < 100 nM

* * *

Here, each record is paired with measured IC50 data.
Target: ATM (Homo sapiens, UniProt Q13315)
Construct: detecting phosphorylation of Chk2 in a human non-small cell lung cancer cell line NCI-H460 (ATCC company); host or cells: NCI-H460 human non-small cell lung cancer cells
Sequence (Q13315 whole entry): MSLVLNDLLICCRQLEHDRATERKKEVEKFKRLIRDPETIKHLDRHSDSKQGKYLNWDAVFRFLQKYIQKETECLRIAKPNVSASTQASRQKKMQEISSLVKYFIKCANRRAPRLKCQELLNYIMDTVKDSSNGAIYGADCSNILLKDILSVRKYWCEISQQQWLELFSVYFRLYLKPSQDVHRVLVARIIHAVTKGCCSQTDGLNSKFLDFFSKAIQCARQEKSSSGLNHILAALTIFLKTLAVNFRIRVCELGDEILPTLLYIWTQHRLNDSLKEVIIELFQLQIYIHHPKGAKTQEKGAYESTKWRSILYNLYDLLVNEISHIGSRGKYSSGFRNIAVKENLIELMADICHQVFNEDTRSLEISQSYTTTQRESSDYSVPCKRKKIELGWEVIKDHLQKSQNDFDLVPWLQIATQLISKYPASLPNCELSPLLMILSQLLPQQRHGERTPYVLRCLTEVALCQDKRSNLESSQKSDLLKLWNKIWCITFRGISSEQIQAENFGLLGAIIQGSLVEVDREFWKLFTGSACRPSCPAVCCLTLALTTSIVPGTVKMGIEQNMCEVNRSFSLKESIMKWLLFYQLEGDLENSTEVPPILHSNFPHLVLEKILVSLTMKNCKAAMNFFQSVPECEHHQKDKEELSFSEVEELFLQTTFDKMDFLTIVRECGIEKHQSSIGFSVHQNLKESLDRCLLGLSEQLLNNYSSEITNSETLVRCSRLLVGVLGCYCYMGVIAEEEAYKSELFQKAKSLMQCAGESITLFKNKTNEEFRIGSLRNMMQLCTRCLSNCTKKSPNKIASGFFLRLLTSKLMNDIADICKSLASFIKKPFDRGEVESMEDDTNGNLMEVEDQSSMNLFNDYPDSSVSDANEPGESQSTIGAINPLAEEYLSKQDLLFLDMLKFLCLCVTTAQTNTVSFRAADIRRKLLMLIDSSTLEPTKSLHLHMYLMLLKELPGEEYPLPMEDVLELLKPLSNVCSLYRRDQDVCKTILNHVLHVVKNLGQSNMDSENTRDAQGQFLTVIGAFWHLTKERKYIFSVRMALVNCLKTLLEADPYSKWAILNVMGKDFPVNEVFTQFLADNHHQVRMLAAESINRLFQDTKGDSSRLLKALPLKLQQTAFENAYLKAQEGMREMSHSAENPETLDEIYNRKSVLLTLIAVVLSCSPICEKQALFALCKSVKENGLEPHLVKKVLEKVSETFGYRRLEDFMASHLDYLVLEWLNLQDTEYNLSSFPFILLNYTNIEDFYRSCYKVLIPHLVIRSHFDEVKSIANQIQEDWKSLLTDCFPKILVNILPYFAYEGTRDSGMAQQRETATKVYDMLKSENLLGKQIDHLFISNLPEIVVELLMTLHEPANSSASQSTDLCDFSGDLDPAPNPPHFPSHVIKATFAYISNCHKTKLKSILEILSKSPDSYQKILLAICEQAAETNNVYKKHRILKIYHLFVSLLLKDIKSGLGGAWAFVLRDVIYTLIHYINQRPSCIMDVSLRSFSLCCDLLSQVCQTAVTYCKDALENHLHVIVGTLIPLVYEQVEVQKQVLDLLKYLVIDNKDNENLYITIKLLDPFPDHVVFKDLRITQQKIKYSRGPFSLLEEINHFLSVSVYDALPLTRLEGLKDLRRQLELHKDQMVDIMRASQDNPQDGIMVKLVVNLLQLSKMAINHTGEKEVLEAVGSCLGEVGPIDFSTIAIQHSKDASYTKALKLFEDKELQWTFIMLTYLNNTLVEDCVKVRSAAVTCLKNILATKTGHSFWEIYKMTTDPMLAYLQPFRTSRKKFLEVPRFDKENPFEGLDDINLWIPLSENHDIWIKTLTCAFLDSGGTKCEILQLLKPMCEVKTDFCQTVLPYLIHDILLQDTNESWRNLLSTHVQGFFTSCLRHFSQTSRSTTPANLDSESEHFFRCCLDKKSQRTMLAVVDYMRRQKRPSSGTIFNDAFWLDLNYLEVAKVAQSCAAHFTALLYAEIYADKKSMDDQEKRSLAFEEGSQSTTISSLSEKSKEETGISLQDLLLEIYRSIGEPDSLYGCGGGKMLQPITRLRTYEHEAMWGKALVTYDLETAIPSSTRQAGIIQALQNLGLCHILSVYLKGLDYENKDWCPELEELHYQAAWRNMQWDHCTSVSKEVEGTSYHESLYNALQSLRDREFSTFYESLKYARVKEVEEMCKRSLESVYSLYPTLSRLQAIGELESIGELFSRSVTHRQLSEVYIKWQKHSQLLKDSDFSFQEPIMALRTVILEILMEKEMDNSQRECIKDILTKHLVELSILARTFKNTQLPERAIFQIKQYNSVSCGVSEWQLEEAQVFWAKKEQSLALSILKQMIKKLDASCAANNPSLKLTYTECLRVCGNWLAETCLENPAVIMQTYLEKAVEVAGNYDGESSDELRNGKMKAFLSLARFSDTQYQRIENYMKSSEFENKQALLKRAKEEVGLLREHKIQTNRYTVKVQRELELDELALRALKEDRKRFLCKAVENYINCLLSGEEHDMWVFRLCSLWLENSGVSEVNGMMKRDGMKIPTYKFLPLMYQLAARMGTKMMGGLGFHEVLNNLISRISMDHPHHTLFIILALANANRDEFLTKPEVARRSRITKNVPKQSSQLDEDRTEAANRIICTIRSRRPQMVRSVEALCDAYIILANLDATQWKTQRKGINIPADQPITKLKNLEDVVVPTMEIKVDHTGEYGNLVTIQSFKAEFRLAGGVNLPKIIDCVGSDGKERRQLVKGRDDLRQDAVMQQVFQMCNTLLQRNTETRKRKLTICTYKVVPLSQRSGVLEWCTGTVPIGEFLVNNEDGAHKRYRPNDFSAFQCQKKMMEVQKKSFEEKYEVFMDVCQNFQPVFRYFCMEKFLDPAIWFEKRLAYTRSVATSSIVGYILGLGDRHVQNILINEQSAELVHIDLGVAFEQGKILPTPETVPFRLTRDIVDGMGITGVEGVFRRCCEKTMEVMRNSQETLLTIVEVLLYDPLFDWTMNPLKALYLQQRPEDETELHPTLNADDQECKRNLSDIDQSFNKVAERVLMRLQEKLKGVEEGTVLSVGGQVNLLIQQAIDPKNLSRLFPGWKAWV
Assay: ATM inhibition test (phosphorylation of Chk2 generated by ionizing radiation, AlphaScreen SureFire)
Type: cell-based
Conditions: phosphorylated Chk2 in NCI-H460 cells, ionizing radiation 8Gy, 1 hour after test compound treatment; read-out: ATM inhibitory activity

The following compounds have reported results that may help.
CCOC(=O)C(C)Nc1ccc2c(c1)Sc1cccc(-c3cc(N4CCOCC4)cc(=O)[nH]3)c1S2 (centres unmarked); 0.1 to 0.5 µM
CC(Nc1ccc2c(c1)Sc1cccc(-c3cc(N4CCOCC4)cc(=O)[nH]3)c1S2)c1ncc(CO)cn1 (single isomer, unassigned) [Example 1-12-142-2]; 0.1 to 0.5 µM

Incoming: Please look at COc1cncc(CNc2ccc3c(c2)Cc2cccc(-c4cc(N5CCOCC5)cc(=O)[nH]4)c2O3)c1 and tell me its recorded IC50 on ATM (Homo sapiens, UniProt Q13315).
Outgoing: 0.1 to 0.5 µM

Incoming: Please look at COc1ncccc1CN1CCC(Nc2ccc3c(c2)Cc2cccc(-c4cc(N5CCOCC5)cc(=O)[nH]4)c2O3)CC1 and tell me its recorded IC50 on ATM (Homo sapiens, UniProt Q13315).
Outgoing: < 0.1 µM

Incoming: Please look at O=c1cc(N2CCOCC2)cc(-c2cccc3c2Sc2ccc(NC4CCN(Cc5ccncc5)CC4)cc2S3)[nH]1 and tell me its recorded IC50 on ATM (Homo sapiens, UniProt Q13315).
Outgoing: 0.1 to 0.5 µM

Incoming: Please look at CC(C)(C)OC(=O)N1CCC[C@H]1C(=O)Nc1ccc2c(c1)Cc1cccc(-c3cc(N4CCOCC4)cc(=O)[nH]3)c1O2 and tell me its recorded IC50 on ATM (Homo sapiens, UniProt Q13315).
Outgoing: 0.5 to 2 µM

Incoming: Please look at COc1cncc(C(C)Nc2ccc3c(c2)Sc2cccc(-c4cc(N5CCOCC5)cc(=O)[nH]4)c2S3)c1 (centres unmarked) [Example 1-12-9] and tell me its recorded IC50 on ATM (Homo sapiens, UniProt Q13315).
Outgoing: < 0.1 µM

Incoming: Please look at COCCCC(Nc1ccc2c(c1)Sc1cccc(-c3cc(N4CCOCC4)cc(=O)[nH]3)c1S2)c1ccc(C)cn1 (centres unmarked) and tell me its recorded IC50 on ATM (Homo sapiens, UniProt Q13315).
Outgoing: < 0.1 µM

Incoming: Please look at O=c1cc(N2CCOCC2)cc(-c2cccc3c2Sc2ccc(NCCN4CCCC4)cc2S3)[nH]1 and tell me its recorded IC50 on ATM (Homo sapiens, UniProt Q13315).
Outgoing: 0.1 to 0.5 µM

Incoming: Please look at CCC(CNc1ccc2c(c1)Sc1cccc(-c3cc(N4CCOCC4)cc(=O)[nH]3)c1S2)N1CCOCC1 (centres unmarked) and tell me its recorded IC50 on ATM (Homo sapiens, UniProt Q13315).
Outgoing: 0.1 to 0.5 µM

Incoming: Please look at O=c1cc(N2CCOCC2)cc(-c2cccc3c2Sc2ccc(NC(CO)CN4CCOCC4)cc2S3)[nH]1 (centres unmarked) and tell me its recorded IC50 on ATM (Homo sapiens, UniProt Q13315).
Outgoing: 0.1 to 0.5 µM

Incoming: Please look at Nc1ccc2c(c1)Cc1cccc(-c3cc(N4CCOCC4)cc(=O)[nH]3)c1O2 and tell me its recorded IC50 on ATM (Homo sapiens, UniProt Q13315).
Outgoing: 0.5 to 2 µM

Incoming: Please look at N#Cc1ccnc(CNc2ccc3c(c2)Sc2cccc(-c4cc(N5CCOCC5)cc(=O)[nH]4)c2O3)c1 and tell me its recorded IC50 on ATM (Homo sapiens, UniProt Q13315).
Outgoing: < 0.1 µM

Incoming: Please look at CN(C)c1ncc(CNc2ccc3c(c2)Cc2cccc(-c4cc(N5CCOCC5)cc(=O)[nH]4)c2O3)cn1 and tell me its recorded IC50 on ATM (Homo sapiens, UniProt Q13315).
Outgoing: < 0.1 µM

* * *

Here, each record is paired with measured pIC50 data.
Target: ATM (Homo sapiens)
Construct: detecting phosphorylation of Chk2 in a human non-small cell lung cancer cell line NCI-H460 (ATCC company); host or cells: NCI-H460 human non-small cell lung cancer cells
Experiment: ATM inhibition test (phosphorylation of Chk2 generated by ionizing radiation, AlphaScreen SureFire)
Format: cell-based
Conditions: phosphorylated Chk2 in NCI-H460 cells, ionizing radiation 8Gy, 1 hour after test compound treatment; read-out: ATM inhibitory activity
pIC50: −log10 of the molar value.

The following molecules have reported results that may help.
CCC(Nc1ccc2c(c1)Sc1cccc(-c3cc(N4CCOCC4)cc(=O)[nH]3)c1O2)c1cncc(OC)c1 (stereo not shown); 6.30 to 7.00
COc1ccnc(C(C)Nc2ccc3c(c2)Cc2ccnc(-c4cc(N5CCOCC5)cc(=O)[nH]4)c2O3)c1 (stereo not shown); 6.30 to 7.00
CC(Nc1ccc2c(c1)Cc1cccc(-c3cc(N4CCOCC4)cc(=O)[nH]3)c1O2)c1cnc(N(C)C)cn1 (stereo not shown); 6.30 to 7.00
CC(Nc1ccc2c(c1)Sc1cccc(-c3cc(N4CCOCC4)cc(=O)[nH]3)c1S2)c1cc(C#N)ncn1 (single isomer, unassigned) [Example 1-12-146-2]; 6.30 to 7.00
Cc1ccnc(C(CF)Nc2ccc3c(c2)Sc2cccc(-c4cc(N5CCOCC5)cc(=O)[nH]4)c2S3)c1 (stereo not shown); 6.30 to 7.00

Incoming: For the molecule CC(Nc1ccc2c(c1)Cc1cccc(-c3cc(N4CCOCC4)cc(=O)[nH]3)c1O2)c1cccnc1 (racemic) [Example 2-11-1] , give its measured pIC50 value.
Outgoing: 6.30 to 7.00

Incoming: For the molecule COc1ccc(C2c3cc(N)ccc3Oc3c2ccnc3-c2cc(N3CCOCC3)cc(=O)[nH]2)cc1 (stereo not shown) , give its measured pIC50 value.
Outgoing: 6.30 to 7.00
